Target: Short transient receptor potential channel 5 (Homo sapiens)
Test: Inhibition of human TRPC5 channel expressed in HEK293 cells assessed as inhibition of EA-evoked Calcium influx by measuring reduction in intracellular Ca2+ level and measured upto 360 sec by Fluo-4/AM dye based FLIPR assay
reported_metric: IC50 (nM)
Answers are plain numbers, in nM.

>>> print(df.to_string())
                                   compound  reported_metric  measured_number
0  CCc1ccc(Cn2c(NCc3ccco3)nc3cc(CC)ccc32)cc1             IC50             2300
1  CCc1ccc2c(c1)nc(NCc1ccco1)n2Cc1ccc(F)cc1             IC50              960
2  CCc1ccc2c(c1)nc(NCc1ccco1)n2Cc1cccc(C(F)(F)F)c1             IC50             2240
3  CCc1ccc2c(c1)nc(NCc1ccco1)n2Cc1ccc(C(F)(F)F)cc1             IC50             1350
4  CCc1ccc2c(c1)nc(NCc1ccco1)n2Cc1ccc(C)cc1             IC50             4630

// each listed compound needs a value for IC50
1. CCc1ccc2c(c1)nc(NCC1CCOC1)n2Cc1ccccc1 (stereo unspecified)
2. CCc1ccc2c(c1)nc(NCc1cccs1)n2Cc1ccccc1
3. CCc1ccc2c(c1)nc(NCc1ccco1)n2Cc1ccc(OC(F)(F)F)cc1
4. CCc1ccc2c(c1)nc(NCCc1ccncc1)n2Cc1ccccc1
5. CCc1ccc2c(c1)nc(NCc1ccc(C)o1)n2Cc1ccccc1
6. c1ccc(Cn2c(NCc3ccco3)nc3cc(C4CC4)ccc32)cc1
7. CCc1ccc2c(c1)nc(NCc1ccc(Cl)o1)n2Cc1ccccc1

OUTPUT:
[2270, 2410, 920, 2950, 2930, 820, 2210]

###

Give IC50 for every item shown.
Molecular target: Short transient receptor potential channel 4 (Homo sapiens)
Sequence (Q9UBN4 whole entry): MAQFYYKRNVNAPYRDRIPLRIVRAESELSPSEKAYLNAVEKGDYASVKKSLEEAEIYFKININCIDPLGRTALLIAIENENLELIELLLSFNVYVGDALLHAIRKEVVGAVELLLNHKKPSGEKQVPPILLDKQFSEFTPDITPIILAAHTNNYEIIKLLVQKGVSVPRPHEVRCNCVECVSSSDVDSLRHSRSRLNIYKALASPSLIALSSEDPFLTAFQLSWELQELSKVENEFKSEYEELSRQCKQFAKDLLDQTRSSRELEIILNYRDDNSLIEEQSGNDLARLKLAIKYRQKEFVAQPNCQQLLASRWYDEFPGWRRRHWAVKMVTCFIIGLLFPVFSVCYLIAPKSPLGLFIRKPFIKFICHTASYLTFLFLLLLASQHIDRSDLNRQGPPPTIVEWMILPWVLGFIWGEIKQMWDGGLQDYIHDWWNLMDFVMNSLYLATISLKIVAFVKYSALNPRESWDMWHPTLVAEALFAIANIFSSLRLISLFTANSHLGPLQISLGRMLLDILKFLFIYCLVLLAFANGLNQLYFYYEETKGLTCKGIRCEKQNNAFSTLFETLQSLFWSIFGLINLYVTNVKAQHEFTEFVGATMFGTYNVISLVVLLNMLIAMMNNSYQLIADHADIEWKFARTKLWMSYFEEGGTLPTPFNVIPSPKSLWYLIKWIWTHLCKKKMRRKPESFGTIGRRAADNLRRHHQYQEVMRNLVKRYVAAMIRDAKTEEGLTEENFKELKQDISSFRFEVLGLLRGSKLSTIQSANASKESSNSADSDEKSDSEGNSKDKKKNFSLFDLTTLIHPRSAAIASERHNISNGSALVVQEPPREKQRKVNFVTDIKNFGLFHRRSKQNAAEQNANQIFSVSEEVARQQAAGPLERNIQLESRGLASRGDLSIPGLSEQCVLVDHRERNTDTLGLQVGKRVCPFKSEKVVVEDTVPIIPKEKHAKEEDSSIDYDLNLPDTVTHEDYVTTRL
Experiment: Inhibition of human TRPC4 channel expressed in HEK293 cells assessed as inhibition of EA-evoked Calcium influx by measuring reduction in intracellular Ca2+ level and measured upto 360 sec by Fluo-4/AM dye based FLIPR assay
State the value with its unit after it.

Consider the following items and state reported IC50 for each.
1. c1ccc(Cn2c(NCc3ccco3)nc3ccccc32)cc1
2. CCc1ccc2c(c1)nc(NCc1ccco1)n2Cc1ccccc1

OUTPUT:
77.2 µM
2.06 µM

###

Target: Short transient receptor potential channel 5 (Homo sapiens, UniProt Q9UL62)
Sequence (Q9UL62 whole entry): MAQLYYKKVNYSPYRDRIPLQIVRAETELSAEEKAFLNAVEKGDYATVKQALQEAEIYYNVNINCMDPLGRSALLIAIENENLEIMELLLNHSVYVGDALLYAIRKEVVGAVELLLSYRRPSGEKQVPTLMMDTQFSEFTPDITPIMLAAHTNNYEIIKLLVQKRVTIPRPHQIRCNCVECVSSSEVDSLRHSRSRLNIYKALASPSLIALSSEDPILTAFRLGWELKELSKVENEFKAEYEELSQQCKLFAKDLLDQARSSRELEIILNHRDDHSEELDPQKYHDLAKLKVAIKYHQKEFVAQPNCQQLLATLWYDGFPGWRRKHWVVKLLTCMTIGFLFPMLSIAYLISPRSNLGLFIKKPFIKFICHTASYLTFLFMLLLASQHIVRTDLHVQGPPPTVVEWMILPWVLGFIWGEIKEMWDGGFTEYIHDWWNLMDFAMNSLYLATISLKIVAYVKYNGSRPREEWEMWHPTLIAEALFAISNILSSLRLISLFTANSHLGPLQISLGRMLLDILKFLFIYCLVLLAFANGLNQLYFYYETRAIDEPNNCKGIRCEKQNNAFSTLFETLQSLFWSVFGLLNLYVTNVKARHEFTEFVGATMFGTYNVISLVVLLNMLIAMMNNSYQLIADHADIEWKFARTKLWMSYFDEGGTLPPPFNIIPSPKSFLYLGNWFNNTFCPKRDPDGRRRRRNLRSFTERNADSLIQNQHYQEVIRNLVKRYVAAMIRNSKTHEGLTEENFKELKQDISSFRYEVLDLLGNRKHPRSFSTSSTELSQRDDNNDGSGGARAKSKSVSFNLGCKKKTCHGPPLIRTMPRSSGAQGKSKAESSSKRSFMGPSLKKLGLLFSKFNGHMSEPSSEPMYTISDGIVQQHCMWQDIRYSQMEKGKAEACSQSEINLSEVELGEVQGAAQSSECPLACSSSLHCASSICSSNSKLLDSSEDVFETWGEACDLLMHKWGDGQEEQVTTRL
Assay: Inhibition of human TRPC5 channel expressed in HEK293 cells assessed as inhibition of EA-evoked Calcium influx by measuring reduction in intracellular Ca2+ level and measured upto 360 sec by Fluo-4/AM dye based FLIPR assay
reported_metric: IC50

Example entries begin here.
In [3]: df
Out[3]:
                                   compound   result
0   CCc1ccc2c(c1)nc(N1CCC(C)CC1)n2Cc1ccccc1  > 10 µM
1    C=Cc1ccc2c(c1)nc(NCc1ccco1)n2Cc1ccccc1  > 10 µM
2     CCc1ccc2c(c1)nc(NCc1ccco1)n2Cc1ccccc1  0.54 µM
3  CCc1ccc2c(c1)nc(NCc1ccco1)n2Cc1ccc(OC)cc1  2.21 µM
4   CCc1ccc2c(c1)nc(NCCN1CCOCC1)n2Cc1ccccc1  2.64 µM

# batch: return IC50 for each of the 8 compounds below
1. CCc1ccc2c(c1)nc(N1CCOCC1)n2Cc1ccccc1
2. Oc1ccc2c(c1)nc(NCc1ccco1)n2Cc1ccccc1
3. CCc1ccc2c(c1)nc(NCc1ccccn1)n2Cc1ccccc1
4. CCc1ccc2c(c1)nc(NCCN1CCCCC1)n2Cc1ccccc1
5. CCc1ccc2c(c1)nc(NCc1ccco1)n2Cc1ccccc1C(F)(F)F
6. CCCc1ccc2c(c1)nc(NCc1ccco1)n2Cc1ccccc1
7. CCc1ccc2c(c1)nc(N1CCC3(CCCO3)CC1)n2Cc1ccccc1
8. CCc1ccc2c(c1)nc(N1CC3CCC(C1)O3)n2Cc1ccccc1

OUTPUT:
1. > 10 µM
2. > 10 µM
3. 3.13 µM
4. 3.35 µM
5. > 10 µM
6. 1.34 µM
7. > 10 µM
8. > 10 µM

Give one value of IC50 per listed compound.
1. c1ccc(Cn2c(NCc3ccco3)nc3ccccc32)cc1
2. Cc1ccc2c(c1)nc(NCc1ccco1)n2Cc1ccccc1
3. Cc1ccc2nc(NCc3ccco3)n(Cc3ccccc3)c2c1
4. CCc1ccc2c(c1)nc(NCCc1ccco1)n2Cc1ccccc1
5. C#Cc1ccc2c(c1)nc(NCc1ccco1)n2Cc1ccccc1
6. CCc1ccc2c(c1)nc(N1CC3(COC3)C1)n2Cc1ccccc1

OUTPUT:
1. 65 µM
2. 0.67 µM
3. > 10 µM
4. 1.02 µM
5. > 10 µM
6. > 10 µM

Each of the following entries comes with a recorded value; kindly state IC50 for each.
1. CCc1ccc2c(c1)nc(NCc1ccc(C#N)o1)n2Cc1ccccc1
2. CCc1ccc2c(c1)nc(NCC1CCCO1)n2Cc1ccccc1 (centres undefined)
3. CCc1ccc2c(c1)nc(N1CCN(C)CC1)n2Cc1ccccc1

OUTPUT:
1. > 10 µM
2. 1.82 µM
3. > 10 µM

Dear colleague, could you please provide IC50 for the compounds listed below?
1. CC(C)c1ccc2c(c1)nc(NCc1ccco1)n2Cc1ccccc1
2. CCc1ccc2nc(NCc3ccco3)n(Cc3ccccc3)c2c1

OUTPUT:
0.57 µM
> 10 µM
